Origin of values: ChEMBL document CHEMBL2177000

assay: Volume of distribution at steady state in Sprague-Dawley rat at 10 mg/kg, po or 2 mg/kg, iv by LC-MS/MS method; type: ADME, organism-based; details: in vivo, read-out: Vdss
ENDPOINT NAME: Vd (L)

compound="CN1C[C@H](C(=O)Nc2ccc(Cl)cc2)[C@@H](c2ccc(/C=C/C(=O)Nc3ccccc3N)nn2)C1 (racemic)" observed_measurement=19

----------
assay: Cmax in Sprague-Dawley rat at 10 mg/kg, po or 2 mg/kg, iv by LC-MS/MS method; format: ADME, organism-based; conditions: in vivo
ENDPOINT NAME: Cmax (ng/mL)

molecule="CN1C[C@H](C(=O)Nc2ccc(Cl)cc2)[C@@H](c2ccc(/C=C/C(=O)Nc3ccccc3N)nn2)C1 (racemic)" unit_info=ng/mL observed_measurement=33
